- experimental-system: hinge + appendage domain of the AP2 β2 subunit (β2-HAD) (UniProt P63010)
- Sequence (P63010 2-937): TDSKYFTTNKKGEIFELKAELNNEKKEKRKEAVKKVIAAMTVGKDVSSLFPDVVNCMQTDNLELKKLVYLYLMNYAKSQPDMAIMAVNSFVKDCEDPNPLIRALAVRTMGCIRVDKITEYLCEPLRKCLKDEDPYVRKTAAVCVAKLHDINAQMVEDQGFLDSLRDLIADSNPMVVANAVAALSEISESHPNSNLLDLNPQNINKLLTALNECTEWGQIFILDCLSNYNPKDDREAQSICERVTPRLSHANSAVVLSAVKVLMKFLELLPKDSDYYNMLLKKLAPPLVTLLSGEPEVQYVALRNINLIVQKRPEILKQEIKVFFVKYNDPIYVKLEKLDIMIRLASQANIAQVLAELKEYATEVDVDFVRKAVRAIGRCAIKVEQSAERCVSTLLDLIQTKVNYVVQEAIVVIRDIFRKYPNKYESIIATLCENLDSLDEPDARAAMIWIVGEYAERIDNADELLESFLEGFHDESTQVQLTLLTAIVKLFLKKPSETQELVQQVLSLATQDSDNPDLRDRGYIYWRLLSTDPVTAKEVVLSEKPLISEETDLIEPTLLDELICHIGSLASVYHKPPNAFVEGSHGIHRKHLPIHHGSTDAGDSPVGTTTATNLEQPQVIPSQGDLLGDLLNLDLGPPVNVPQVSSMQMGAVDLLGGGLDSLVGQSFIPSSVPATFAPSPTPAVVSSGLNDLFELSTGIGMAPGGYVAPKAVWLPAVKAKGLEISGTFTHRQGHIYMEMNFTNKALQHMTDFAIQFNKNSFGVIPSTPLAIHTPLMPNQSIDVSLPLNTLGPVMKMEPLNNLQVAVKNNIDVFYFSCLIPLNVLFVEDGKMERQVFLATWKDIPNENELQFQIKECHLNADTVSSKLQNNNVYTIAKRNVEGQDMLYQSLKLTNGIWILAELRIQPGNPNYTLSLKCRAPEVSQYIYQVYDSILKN
- measurement-conditions: read-out: binding affinity KD to β2-HAD; ITC, 20°C, pH 7.4; 1.2 mM Wbox2 injected into 200 µM β2-HAD; A+B <–> AB model; binds a fraction of purified β2-HAD
pKd: −log10 of the molar value. No end group written: not given here.
reported-endpoint: pKd

[[record]]
sequence_content = "YGRKKRRQRRRGFSCQIIGIS [Wbox2]"
test_value = 4.43


###

- experimental-system: SNX9 (Homo sapiens)
- Sequence (Q9Y5X1 whole entry, species assumed): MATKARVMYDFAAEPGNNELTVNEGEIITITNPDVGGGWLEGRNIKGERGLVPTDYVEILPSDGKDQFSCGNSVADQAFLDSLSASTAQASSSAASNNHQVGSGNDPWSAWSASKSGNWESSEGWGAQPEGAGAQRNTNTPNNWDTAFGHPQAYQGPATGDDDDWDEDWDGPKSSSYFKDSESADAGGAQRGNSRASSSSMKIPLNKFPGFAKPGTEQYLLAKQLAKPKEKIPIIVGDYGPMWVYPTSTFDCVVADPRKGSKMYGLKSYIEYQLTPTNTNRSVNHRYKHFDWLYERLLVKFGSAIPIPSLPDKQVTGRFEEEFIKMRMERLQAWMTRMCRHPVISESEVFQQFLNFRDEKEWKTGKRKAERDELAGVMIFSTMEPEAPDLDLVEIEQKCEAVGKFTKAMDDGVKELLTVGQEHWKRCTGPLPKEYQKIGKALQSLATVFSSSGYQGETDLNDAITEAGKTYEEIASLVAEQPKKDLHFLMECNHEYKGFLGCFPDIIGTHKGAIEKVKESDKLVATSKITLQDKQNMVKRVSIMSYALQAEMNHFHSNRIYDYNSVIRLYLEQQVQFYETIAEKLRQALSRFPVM
- procedure-text: Isothermal titration calorimetry with SNX9
- Type: binding
- measurement-conditions: ITC, 20°C, 20 mM Hepes, 150 mM NaCl, 1 mM TCEP, pH 7.4; 1.8 mM Wbox2 injected into 50 µM SNX9; two nonsymmetric sites model; read-out: binding affinity KD1, first Wbox2 binding site on SNX9
No end group written: not given here.
reported-endpoint: Kd (µM)

[[record]]
sequence_content = "YGRKKRRQRRRGFSCQIIGIS [Wbox2]"
measurement_units = "µM"
test_value = 4

